Tested Target: Sodium/iodide cotransporter (Rattus norvegicus, UniProt Q63008)
Sequence (Q63008 whole entry): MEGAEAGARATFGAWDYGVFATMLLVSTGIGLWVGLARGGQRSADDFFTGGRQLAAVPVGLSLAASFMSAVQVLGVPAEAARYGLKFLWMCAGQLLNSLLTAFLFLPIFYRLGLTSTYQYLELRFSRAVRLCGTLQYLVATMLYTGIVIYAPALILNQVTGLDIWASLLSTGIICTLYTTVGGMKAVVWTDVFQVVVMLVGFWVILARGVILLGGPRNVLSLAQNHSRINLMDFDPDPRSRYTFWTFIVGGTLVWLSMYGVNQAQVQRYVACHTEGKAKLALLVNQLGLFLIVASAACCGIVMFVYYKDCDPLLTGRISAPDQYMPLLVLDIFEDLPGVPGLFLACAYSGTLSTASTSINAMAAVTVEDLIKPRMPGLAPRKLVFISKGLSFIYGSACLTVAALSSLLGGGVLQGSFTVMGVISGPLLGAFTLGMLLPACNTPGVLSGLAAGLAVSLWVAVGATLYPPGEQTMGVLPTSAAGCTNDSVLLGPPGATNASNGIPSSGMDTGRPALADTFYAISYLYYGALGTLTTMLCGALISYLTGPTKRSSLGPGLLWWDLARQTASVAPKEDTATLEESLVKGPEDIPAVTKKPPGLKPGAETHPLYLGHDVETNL
Protocol Details: inhibition of sodium iodide symporter in rat FRTL5 cells after 1 hr by arsenic/cerium titration assay
Endpoint Name: log10 of IC50 (log10 of the value in nM)
// stored as log10 of IC50 expressed in nM

Worked cases, log10 of IC50 given:
- Compound: "COc1ccc(COC(=O)C2=C(C)NC(=O)N[C@@H]2c2ccco2)cc1"
  log10 of IC50: 2.80
- Compound: "COc1ccc(COC(=O)C2=C(C)N(C)C(=O)NC2c2ccco2)cc1OC (stereo not given)"
  log10 of IC50: 3.00

Short answer for COc1ccc(COC(=O)C2=C(C)NC(=O)NC2c2ccco2)cc1OC (stereo not given) : log10 of IC50 was 2.60

Short answer for COc1ccc(COC(=O)C2=C(C)N(C)C(=O)N(C)C2c2ccco2)cc1OC (stereo not given) : log10 of IC50 was 1.81

Short answer for `COc1ccc(COC(=O)C2=C(C)NC(=O)N[C@H]2c2ccco2)cc1` : log10 of IC50 was 4.15

Short answer for `CC1=C(C(=O)OCc2ccc3c(c2)OCO3)[C@@H](c2ccco2)N(C)C(=O)N1C` : log10 of IC50 was -0.15

Short answer for COc1ccc(COC(=O)C2=C(C)NC(=O)NC2c2ccccc2)cc1 (stereo not given) : log10 of IC50 was 1.95

Short answer for `COc1ccc(COC(=O)C2=C(C)NC(=O)N[C@@H]2c2ccccc2)cc1` : log10 of IC50 was 1.85

Short answer for `COc1ccc(COC(=O)C2=C(C)NC(=O)N[C@H]2c2ccccc2)cc1` : log10 of IC50 was 3.18

Short answer for `CC1=C(C(=O)OCc2ccc3c(c2)OCO3)[C@H](c2ccco2)N(C)C(=O)N1C` : log10 of IC50 was 2.80
